Reference for the values: ChEMBL document CHEMBL5550171

- measurementTarget: UniProt:P09874
- Sequence (P09874 whole entry): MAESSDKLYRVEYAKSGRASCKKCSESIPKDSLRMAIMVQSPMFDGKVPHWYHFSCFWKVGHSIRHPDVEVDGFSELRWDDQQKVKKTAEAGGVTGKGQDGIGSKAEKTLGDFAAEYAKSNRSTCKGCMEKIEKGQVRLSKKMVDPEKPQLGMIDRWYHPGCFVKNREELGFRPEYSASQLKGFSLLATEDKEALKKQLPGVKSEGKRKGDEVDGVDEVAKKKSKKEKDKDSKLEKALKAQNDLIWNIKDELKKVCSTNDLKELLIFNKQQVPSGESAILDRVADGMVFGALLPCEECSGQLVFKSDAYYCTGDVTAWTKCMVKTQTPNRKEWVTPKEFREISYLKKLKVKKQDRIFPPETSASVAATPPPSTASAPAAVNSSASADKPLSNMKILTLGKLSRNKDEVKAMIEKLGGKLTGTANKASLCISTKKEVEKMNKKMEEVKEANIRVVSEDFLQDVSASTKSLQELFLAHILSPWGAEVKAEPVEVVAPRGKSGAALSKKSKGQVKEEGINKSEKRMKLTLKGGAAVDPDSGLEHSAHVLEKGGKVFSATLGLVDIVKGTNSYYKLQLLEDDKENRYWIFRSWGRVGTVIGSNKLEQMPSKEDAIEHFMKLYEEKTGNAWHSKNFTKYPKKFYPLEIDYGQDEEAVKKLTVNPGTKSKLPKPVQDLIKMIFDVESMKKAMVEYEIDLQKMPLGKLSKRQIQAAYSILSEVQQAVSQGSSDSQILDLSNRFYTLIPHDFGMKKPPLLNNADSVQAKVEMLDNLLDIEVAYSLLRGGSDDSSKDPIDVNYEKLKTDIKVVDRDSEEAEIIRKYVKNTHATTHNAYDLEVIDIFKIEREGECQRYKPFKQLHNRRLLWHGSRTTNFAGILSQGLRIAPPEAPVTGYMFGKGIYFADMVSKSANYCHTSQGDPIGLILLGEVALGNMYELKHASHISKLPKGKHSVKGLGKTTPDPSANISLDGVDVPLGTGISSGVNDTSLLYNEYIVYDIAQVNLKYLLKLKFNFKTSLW
- methodNotes: Inhibition of human recombinant PARP-1 by ELISA assay
I'd be grateful if you could share measured IC50 for these entries.
Returns: string containing the number followed by the unit.

Consider the compound shown here: `NC(=O)c1cccc2[nH]c(-c3ccc(C(=O)N4CCN(C(=O)c5ccc(Br)o5)CC4)cc3)nc12` What is its recorded IC50?
0.023 µM

Consider the compound shown here: `NC(=O)c1cccc2[nH]c(-c3ccc(C(=O)N4CCN(C(=O)c5ccc(Cl)o5)CC4)cc3)nc12` What is its recorded IC50?
0.043 µM

----------
- methodNotes: Cytotoxicity against mouse BALB/3T3 cells assessed as reduction in cell viability incubated for 72 hrs by MTT assay
- Format: toxicity, cell-based
measurementName: IC50 at 72 h (µM)
Give just the number in µM; leave the unit off.

Consider the compound shown here: `CCOC(=O)c1ccc(NC(=O)CS/C(=C\C(=O)c2sc(Nc3ccccn3)nc2C)c2ccccc2F)cc1` What is its recorded IC50 at 72 h?
7.79
